testSummary: inhibitors of HIV fusion peptide binding, primary screen, biochemical, uHTS, fluorescence dequenching (AID 1986)
experimentalSetup: cell-free peptide binding, 30 min, measured here: repeat confirmation average inhibition, at 18.6 µM, stronger effect = higher value
Out of some 290,000 compounds screened, about 890 (0.31%) were called active. The list comes from a sample in which actives are over-represented; it also holds close analogues and randomly drawn compounds.
propertyLabel: inhibition (%)
Quick reminder: number only, in %, skip the unit.

compound	observedMeasurement
S=c1[nH]nc(-c2ccccc2)n1/N=C/C=C/c1ccco1	-0.2

inhibition lookup needed for "COCCN(CCOC)Cc1c(O)ccc2c1O/C(=C\c1ccco1)C2=O" , thanks.
78.9

Find the recorded inhibition belonging to "CCOC(=O)CCSc1nc(C)cc(C(F)(F)F)c1C#N" and report it.
50.9

Entry under review: "CCN(CC)S(=O)(=O)c1ccc(C(=O)/C=C/c2ccc(-c3ccc([N+](=O)[O-])cc3)o2)cc1" . Reported inhibition?
88.1

If you can, please state the reported inhibition value of "COc1cccc(/C=N/NC(=O)c2oc3nc(-c4ccccc4)cc(-c4ccco4)c3c2N)c1" .
55.5

The measured values listed here are drawn from PubChem BioAssay AID1986.
